All values here come from patent US20210276987A1.

For each of the molecules below, state its IC50.
# TEST_SYSTEM: UniProtKB P11509
# Sequence (P11509 1-494): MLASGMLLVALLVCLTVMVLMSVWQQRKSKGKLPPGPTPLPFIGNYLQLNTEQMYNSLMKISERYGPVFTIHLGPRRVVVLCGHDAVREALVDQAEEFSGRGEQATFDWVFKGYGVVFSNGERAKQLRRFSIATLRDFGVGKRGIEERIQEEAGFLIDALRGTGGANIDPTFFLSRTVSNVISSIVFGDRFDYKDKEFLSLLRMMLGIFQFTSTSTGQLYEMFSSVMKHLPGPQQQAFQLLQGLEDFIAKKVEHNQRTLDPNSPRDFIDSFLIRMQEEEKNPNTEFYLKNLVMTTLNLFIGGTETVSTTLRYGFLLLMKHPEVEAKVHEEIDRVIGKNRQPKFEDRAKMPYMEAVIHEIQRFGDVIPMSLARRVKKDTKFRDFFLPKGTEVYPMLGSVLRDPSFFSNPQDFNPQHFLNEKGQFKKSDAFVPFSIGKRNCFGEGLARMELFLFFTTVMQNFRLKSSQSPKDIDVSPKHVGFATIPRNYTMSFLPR
# EXPERIMENT_DESCRIPTION: biochemical
# MEASUREMENT_CONTEXT: IC50 against CYP2A6 (μM), Table 5, alkyne linker agents; pooled human liver microsomes, coumarin […]
Where a name gives a salt, the structure may show the parent alone.

Previously resolved entries follow.
INSERT INTO measurements (molecule, metric_name, meas_value) VALUES
  ('Cc1ncccc1C#CCN [Compound F]', 'IC50', '> 10 µM'),
  ('NCC#Cc1cncc2ccccc12 [Compound A, Dihydrochloride]', 'IC50', '> 10 µM'),
  ('NCC#Cc1cnccc1Cl [Compound L, Dihydrochloride]', 'IC50', '0.13 µM');

Could you now consider this next molecule?
Please fill in: IC50 reported for NCC#Cc1cnc2ccccc2c1 [Compound B, 3-(quinolin-3-yl)prop-2-yn-1-amine] = > 10 µM
